# Procedure text: Inhibition of Influenza A/Udorn/72/H3N2 full length GST-tagged NS1A/FAM-dsRNA-interaction after 1 hr by fluorescence polarization assay
# Design: species or system Influenza A virus (A/udorn/1972(H3N2))
Assignment: determine reported IC50 for the given compounds.

The examples below pair each entry with its known result.
{"Structure smiles string": "O=C(NCc1ccccn1)c1ccc2nc(-c3ccco3)c(-c3ccco3)nc2c1", "IC50": "43.3 µM"}
{"Structure smiles string": "COC(=O)c1ccc2nc(-c3ccco3)c(-c3ccco3)nc2c1", "IC50": "74.8 µM"}
{"Structure smiles string": "COc1cccc(CNC(=O)c2ccc3nc(-c4ccco4)c(-c4ccco4)nc3c2)c1", "IC50": "6.2 µM"}

Turning now to a further record.
Item "O=C(NCc1ccco1)c1ccc2nc(-c3ccco3)c(-c3ccco3)nc2c1" : provide IC50 3.5 µM
